# Protocol Notes: MTT cytotoxicity assay on PBMCs
# Format: cell-based, human
# Conditions Used: human, peripheral blood mononuclear cells (PBMCs), n = 4, read-out: PBMC viability
Quantity Kind: viability at 72 h, 3 µM (%)
Return type: number; implicit unit %.

Entry C=C(C)[C@@H]1CC[C@]2(C(=O)O)CC[C@]3(C)[C@H](CC[C@@H]4[C@@]5(C)CC[C@H](O)C(C)(C)[C@@H]5CC[C@]43C)[C@@H]12 [BA, betulinic acid] has what viability at 72 h, 3 µM?
9.2

These data points were gathered from paper PMC8223974.
